Tested on: HT
experimental protocol: cells
Assay type: functional, cell-based
condition notes: Homo sapiens
Description: SANGER: Inhibition of human HT cell growth in a cell viability assay.
pIC50: −log10 of the molar value.
# pIC50 values compiled below
endpoint label: pIC50

CCn1c(-c2nonc2N)nc2cnc(Oc3cccc(NC(=O)c4ccc(OCCN5CCOCC5)cc4)c3)cc21 [GSK-269962A]
< 5.60
N#C/C(=C1/Nc2ccccc2S1)c1ccnc(NCCc2cccnc2)n1
< 5.10
CC[C@@]1(O)C(=O)OCc2c1cc1n(c2=O)Cc2cc3ccccc3nc2-1
7.53
CC(C)=CC[C@@H](O)C1=CC(=O)c2c(O)ccc(O)c2C1=O
5.96
COc1cc(C)c(Sc2cnc(NC(=O)c3ccc(CNC(C)C(C)(C)C)cc3)s2)cc1C(=O)N1CCN(C(C)=O)CC1 (stereo not drawn)
< 4.99
C/C=C(/C)C(=O)O[C@H]1C(C)=C2[C@H]([C@@H]1OC(=O)CCCCCCC)[C@@](C)(OC(C)=O)C[C@H](OC(=O)CCC)[C@@]1(O)[C@H]2OC(=O)[C@@]1(C)O
8.24
CCNc1cc(N[C@H]2CC[C@@H](O)CC2)nc(Nc2ccc3c(ccn3Cc3ccccc3)c2)n1
< 5.29
C/C(O)=C(\C#N)C(=O)Nc1cc(Br)ccc1Br
< 4.80

###

Test system: Daudi;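 also: growth inhibition of Daudi cells, read out by a viability assay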
experimental protocol: cells
Assay type: functional, cell-based
condition notes: Homo sapiens
Description: SANGER: Inhibition of human Daudi cell growth in a cell viability assay.
Reported IC50 values follow for various compounds
endpoint label: IC50 (nM)

Fc1cc(-c2cc[nH]/c(=N/c3ccc(-n4cnc(N5CCOCC5)n4)cc3)n2)cc(N2CCOCC2)c1
381
CCn1c(-c2nonc2N)nc2cnc(Oc3cccc(NC(=O)c4ccc(OCCN5CCOCC5)cc4)c3)cc21 [GSK-269962A]
2100
Cc1n[nH]c2ccc(-c3cncc(OC[C@@H](N)Cc4c[nH]c5ccccc45)c3)cc12
355
CC(C)=CC[C@@H](O)C1=CC(=O)c2c(O)ccc(O)c2C1=O
3440

###

List of pIC50 values.
System: CAL-72;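 also: cell viability assay measuring inhibition of proliferation in the CAL-72 cell line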
experimental protocol: cells
Type: functional, cell-based
condition notes: Homo sapiens
Description: SANGER: Inhibition of human CAL-72 cell growth in a cell viability assay.
pIC50: −log10 of the molar value.
endpoint label: pIC50

C[C@]12O[C@H](C[C@]1(O)CO)n1c3ccccc3c3c4c(c5c6ccccc6n2c5c31)CNC4=O
< 5.70
CC(O)(CS(=O)(=O)c1ccc(F)cc1)C(=O)Nc1ccc(C#N)c(C(F)(F)F)c1 (stereo unspecified) [BICALUTAMIDE]
< 5.99
CCNC(=O)c1noc(-c2cc(C(C)C)c(O)cc2O)c1-c1ccc(CN2CCOCC2)cc1
6.78
Cn1c(=O)n(-c2ccc(C(C)(C)C#N)cc2)c2c3cc(-c4cnc5ccccc5c4)ccc3ncc21
6.53
Fc1cc(-c2cc[nH]/c(=N/c3ccc(-n4cnc(N5CCOCC5)n4)cc3)n2)cc(N2CCOCC2)c1
< 5.29
C[C@]1(c2nc3c(C(N)=O)cccc3[nH]2)CCCN1
< 5.30

###

This listing pairs molecules with measured pIC50.
System: no-11;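 also: growth inhibition of human NO-11 cells, read out with a cell viability assay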
experimental protocol: cells
Type: functional, cell-based
condition notes: Homo sapiens
Description: SANGER: Inhibition of human no-11 cell growth in a cell viability assay.
pIC50: −log10 of the molar value.
endpoint label: pIC50

Fc1cc(-c2cc[nH]/c(=N/c3ccc(-n4cnc(N5CCOCC5)n4)cc3)n2)cc(N2CCOCC2)c1
5.87
CC[C@]1(O)C[C@@H]2CN(CCc3c([nH]c4ccccc34)[C@@](C(=O)OC)(c3cc4c(cc3OC)N(C)[C@H]3[C@@](O)(C(=O)OC)[C@H](OC(C)=O)[C@]5(CC)C=CCN6CC[C@]43[C@@H]65)C2)C1
7.41
Cc1nc(Nc2ncc(C(=O)Nc3c(C)cccc3Cl)s2)cc(N2CCN(CCO)CC2)n1
6.30

###

Tested on: C2BBe1;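 also: growth inhibition of C2BBe1 cells, read out through a viability assay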
experimental protocol: cells
Format: functional, cell-based
condition notes: Homo sapiens
Description: SANGER: Inhibition of human C2BBe1 cell growth in a cell viability assay.
pIC50: −log10 of the molar value.
Reported pIC50 is given for each of the following molecules.
endpoint label: pIC50

CCNC(=O)c1noc(-c2cc(C(C)C)c(O)cc2O)c1-c1ccc(CN2CCOCC2)cc1 [LUMINESPIB]
6.70
NC(=O)c1ncn([C@@H]2O[C@H](COP(=O)(O)O)[C@@H](O)[C@H]2O)c1N
3.22
O=c1cc(N2CCOCC2)oc2c(-c3cccc4c3sc3ccccc34)cccc12
< 5.70
CC(=O)c1c(C)c2cnc(Nc3ccc(N4CCNCC4)cn3)nc2n(C2CCCC2)c1=O [PALBOCICLIB]
< 5.40
C[C@]12O[C@H](C[C@]1(O)CO)n1c3ccccc3c3c4c(c5c6ccccc6n2c5c31)CNC4=O [LESTAURTINIB]
6.44
Cc1ccc(NC(=O)c2cccc(C(C)(C)C#N)c2)cc1Nc1ccc2ncn(C)c(=O)c2c1
< 5.40
COc1cc(C)c(Sc2cnc(NC(=O)c3ccc(CNC(C)C(C)(C)C)cc3)s2)cc1C(=O)N1CCN(C(C)=O)CC1 (stereo not drawn)
< 4.99
CCn1c(-c2nonc2N)nc2cnc(Oc3cccc(NC(=O)c4ccc(OCCN5CCOCC5)cc4)c3)cc21 [GSK-269962A]
< 5.60

###

Tested on: KP-N-YN
experimental protocol: cells
Format: functional, cell-based
condition notes: Homo sapiens
Description: SANGER: Inhibition of human KP-N-YN cell growth in a cell viability assay.
IC50 values by entry
endpoint label: IC50

O=c1cc(N2CCOCC2)oc2c(-c3cccc4c3sc3ccccc34)cccc12
> 2 µM
NC(=O)c1ncn([C@@H]2O[C@H](COP(=O)(O)O)[C@@H](O)[C@H]2O)c1N
> 2000 µM
N#C/C(=C1/Nc2ccccc2S1)c1ccnc(NCCc2cccnc2)n1
> 8 µM
CC[C@]1(O)C[C@@H]2CN(CCc3c([nH]c4ccccc34)[C@@](C(=O)OC)(c3cc4c(cc3OC)N(C)[C@H]3[C@@](O)(C(=O)OC)[C@H](OC(C)=O)[C@]5(CC)C=CCN6CC[C@]43[C@@H]65)C2)C1
0.0464 µM
CC(=O)c1c(C)c2cnc(Nc3ccc(N4CCNCC4)cn3)nc2n(C2CCCC2)c1=O
> 4 µM

###

Test system: NCI-H2171;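 also: growth inhibition of human NCI-H2171 cells, read out by a cell viability assay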
experimental protocol: cells
Type: functional, cell-based
condition notes: Homo sapiens
Description: SANGER: Inhibition of human NCI-H2171 cell growth in a cell viability assay.
endpoint label: IC50

CO[C@@]12[C@H](COC(N)=O)C3=C(C(=O)C(C)=C(N)C3=O)N1C[C@@H]1N[C@@H]12 [MITOMYCIN]
1500 nM
CCNC(=O)c1noc(-c2cc(C(C)C)c(O)cc2O)c1-c1ccc(CN2CCOCC2)cc1 [LUMINESPIB]
186 nM
COc1cc(C)c(Sc2cnc(NC(=O)c3ccc(CNC(C)C(C)(C)C)cc3)s2)cc1C(=O)N1CCN(C(C)=O)CC1 (stereo unspecified)
> 10200 nM
CC(O)(CS(=O)(=O)c1ccc(F)cc1)C(=O)Nc1ccc(C#N)c(C(F)(F)F)c1 (stereo unspecified) [BICALUTAMIDE]
> 1020 nM
C/C(O)=C(\C#N)C(=O)Nc1cc(Br)ccc1Br
> 16000 nM
N#C/C(=C1/Nc2ccccc2S1)c1ccnc(NCCc2cccnc2)n1
> 8000 nM

###

Tested on: BCPAP;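 also: growth inhibition of BCPAP cells, read out in a cell viability assay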
experimental protocol: cells
Assay type: functional, cell-based
condition notes: Homo sapiens
Description: SANGER: Inhibition of human BCPAP cell growth in a cell viability assay.
pIC50: −log10 of the molar value.
endpoint label: pIC50

COc1cc(Nc2c(C#N)cnc3cc(OCCCN4CCN(C)CC4)c(OC)cc23)c(Cl)cc1Cl
< 5.70
O=c1cc(N2CCOCC2)oc2c(-c3cccc4c3sc3ccccc34)cccc12
< 5.70
NC(=O)c1ncn([C@@H]2O[C@H](COP(=O)(O)O)[C@@H](O)[C@H]2O)c1N
3.13

###

Test system: RPMI-7951
experimental protocol: cells
Type: functional, cell-based
condition notes: Homo sapiens
Description: SANGER: Inhibition of human RPMI-7951 cell growth in a cell viability assay.
pIC50: −log10 of the molar value.
endpoint label: pIC50

C[C@]12O[C@H](C[C@]1(O)CO)n1c3ccccc3c3c4c(c5c6ccccc6n2c5c31)CNC4=O [LESTAURTINIB]
6.50
CO[C@@]12[C@H](COC(N)=O)C3=C(C(=O)C(C)=C(N)C3=O)N1C[C@@H]1N[C@@H]12 [MITOMYCIN]
6.78
Fc1cc(-c2cc[nH]/c(=N/c3ccc(-n4cnc(N5CCOCC5)n4)cc3)n2)cc(N2CCOCC2)c1
6.14
CC(C)=CC[C@@H](O)C1=CC(=O)c2c(O)ccc(O)c2C1=O [SHIKONIN]
6.81
Cn1c(=O)n(-c2ccc(C(C)(C)C#N)cc2)c2c3cc(-c4cnc5ccccc5c4)ccc3ncc21 [DACTOLISIB]
7.71
CC[C@@]1(O)C(=O)OCc2c1cc1n(c2=O)Cc2cc3ccccc3nc2-1 [CAMPTOTHECIN]
8.32

###

Tested on: A549
experimental protocol: cells
Type: functional, cell-based
condition notes: Homo sapiens
Description: SANGER: Inhibition of human A549 cell growth in a cell viability assay.
endpoint label: IC50 (µM)

C[C@]12O[C@H](C[C@]1(O)CO)n1c3ccccc3c3c4c(c5c6ccccc6n2c5c31)CNC4=O [LESTAURTINIB]
0.194

###

# key: entry, value: IC50
Tested on: NCI-H2030
experimental protocol: cells
Format: functional, cell-based
condition notes: Homo sapiens
Description: SANGER: Inhibition of human NCI-H2030 cell growth in a cell viability assay.
endpoint label: IC50

CC[C@@]1(O)C(=O)OCc2c1cc1n(c2=O)Cc2cc3ccccc3nc2-1
48.5 nM
C[C@]1(c2nc3c(C(N)=O)cccc3[nH]2)CCCN1
> 5000 nM
Fc1cc(-c2cc[nH]/c(=N/c3ccc(-n4cnc(N5CCOCC5)n4)cc3)n2)cc(N2CCOCC2)c1
169 nM
C/C=C(/C)C(=O)O[C@H]1C(C)=C2[C@H]([C@@H]1OC(=O)CCCCCCC)[C@@](C)(OC(C)=O)C[C@H](OC(=O)CCC)[C@@]1(O)[C@H]2OC(=O)[C@@]1(C)O
4.05 nM
O=c1cc(N2CCOCC2)oc2c(-c3cccc4c3sc3ccccc34)cccc12
> 2000 nM
